Where do the numbers come from? From PubChem BioAssay AID1159580.

Experiment: chemical genetic growth profiling, strain panel (AID 1159580);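 note: tested at 20 µM; growth read once vehicle control cultures reached saturation at 30 °C; 1 = growth at the plate median or of vehicle wells; lower values mean less growth of the strain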
Conditions: S. cerevisiae deletion strains, growth OD, locus YHR027C, strain rpn1
The campaign covered roughly 5,500 compounds. About 2,000 (36%) were called active. Inconclusive results (about 18%) are left out. Cut-off read from the data, not from the text of the source: active = normalized growth mostly below about 0.91 (no sharp cut-off); inconclusive = no clear call, values can overlap the other calls; inactive = mostly above about 0.92. The list shows a part of the results.
Returns: one label drawn from Yes = active, No = inactive

Compound	Group
O=c1cc(-c2ccc(O)cc2)oc2cc(O[C@@H]3O[C@H](CO)[C@@H](O)[C@H](O)[C@H]3O[C@@H]3OC[C@](O)(CO)[C@H]3O)cc(O)c12	No
O=c1ccc2cc(O[C@@H]3O[C@H](CO)[C@@H](O)[C@H](O)[C@H]3O)c(O)cc2o1	No
O=c1c(-c2ccc3c(c2)OCO3)coc2cc(O)ccc12	No

In: Hi, sorry to bother you, what did the test record for CC(=O)c1ccc2c(c1)N(CCCN(C)C)c1ccccc1S2 ?
Out: No

In: Hi, sorry to bother you, what did the test record for COc1cc2ccc(=O)oc2c(OC)c1OC ?
Out: No

* * *

Test: chemical genetic growth profiling, strain panel (AID 1159580)
Conditions: S. cerevisiae deletion strains, growth OD, locus YNR052C, strain pop2
Screen size: about 5,500 compounds; about 2,000 (36%) were called active. About 18% were inconclusive and are not listed. Rule as the data show it: active = normalized growth mostly below about 0.91 (no sharp cut-off); inconclusive = no clear call, values can overlap the other calls; inactive = mostly above about 0.92. This is one part of the list.
Returns: one label drawn from active, inactive

Here are 3 compounds together with their reported answers.
Compound	Group
N#C/C(=C\c1ccc(O)cc1)C(=O)O	inactive
COc1cc2c(cc1-c1coc3c4c(c(OC)cc3c1=O)OC(C)(C)C=C4)OCO2	inactive
CC1(C)C[C@@H]2C(=O)CC[C@H]3O[C@]3(C)CC[C@H]21	inactive

In: Hi, sorry to bother you, what did the test record for CC(C)=CCOc1c2occc2cc2ccc(=O)oc12 ?
Out: active

In: Hi, sorry to bother you, what did the test record for COc1cc(O)c(C(=O)c2ccccc2)c(OC)c1 ?
Out: inactive

In: Hi, sorry to bother you, what did the test record for C[C@]12CCC3C(CC[C@H]4C[C@@H](O)CC[C@]34C)C1CCC2=O (stereo partly specified) ?
Out: active

In: Hi, sorry to bother you, what did the test record for COc1cc(OC)c2c(c1Cl)OC1(C2=O)C(O)=CC(=O)CC1C (stereo unspecified) ?
Out: inactive

In: Hi, sorry to bother you, what did the test record for COc1c(O)cc(O)cc1O ?
Out: inactive

In: Hi, sorry to bother you, what did the test record for C[C@]12CCC3C(CC[C@H]4C[C@@H](Cl)CC[C@]34C)C1CCC2=O (stereo partly specified) ?
Out: inactive

* * *

Assay: chemical genetic growth profiling, strain panel (AID 1159580)
Settings: S. cerevisiae deletion strains, growth OD, locus YPL153C, strain RAD53
The campaign covered roughly 5,500 compounds. About 2,000 (36%) were called active. Roughly 18% stayed inconclusive and do not appear here. Rule as the data show it: active = normalized growth mostly below about 0.91 (no sharp cut-off); inconclusive = no clear call, values can overlap the other calls; inactive = mostly above about 0.92. This is one part of the list.
Returns: one label drawn from 1 = active, -1 = inactive

Compound	Group
CCOC(=O)C(O)(c1ccc(NC(=O)Nc2ccc(Cl)cc2)cc1)C(F)(F)F (stereo unspecified)	-1
NNC(=O)COc1ccc(C2SCCS2)cc1	1
COc1ccc(/C(C#N)=C2C=C/C(=N/O)C(Cl)=C\2)cc1	-1

In: Hi, sorry to bother you, what did the test record for Cc1c(NCN2C(=O)CCC2=O)cc2c(c1[N+](=O)[O-])C(C)(C)CC2(C)C ?
Out: -1

In: Hi, sorry to bother you, what did the test record for O=C(O)c1cccc2cccc(C(=O)O)c12 ?
Out: 1

In: Hi, sorry to bother you, what did the test record for O=C1CSC(=Nc2cc(Cl)cc(Cl)c2)N1Cc1cccnc1 ?
Out: -1

* * *

We begin with a simple list: items and their reported normalized growth.
Assay: chemical genetic growth profiling, strain panel (AID 1159580);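 note: tested at 20 µM; growth read once vehicle control cultures reached saturation at 30 °C; 1 = growth at the plate median or of vehicle wells; lower values mean less growth of the strain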
Settings: S. cerevisiae deletion strains, growth OD, locus YJR043C, strain POL32, active compounds read low
Among all 5,500 compounds or so, about 2,000 (36%) were called active. Inconclusive results (about 18%) are left out. The list shows a part of the results.
// return just the number, without any unit appended

// worked examples, normalized growth included
Compound	normalized growth
c1coc(CNc2ncnc3nc[nH]c23)c1	0.985
CN(C)c1nc(N(C)C)nc(N(C)C)n1	1.01
CSc1sc(-c2ccn[nH]2)c(-c2ccccc2)c1C#N	0.969
COc1cc(O)c(C)c(O)c1	1.02
CC(C)(C)c1ccc(C(=O)N/N=C\c2cc(Cl)cc(Cl)c2O)cc1	0.876
COc1cc(O)c(C(=O)c2ccccc2)c(OC)c1	0.981
CCOC(=N)c1ccc(F)c(Cl)c1	1.02
O=c1n(CCCN2CCN(c3cccc(Cl)c3)CC2)nc2ccccn12	0.936

In: Give the measured normalized growth of COc1c(O)cc(O)cc1O .
Out: 1.07

In: Give the measured normalized growth of COc1cccc(CC(=O)NN)c1 .
Out: 1.02

In: Give the measured normalized growth of CC(C)=CCC1=C(O)c2ccccc2C(=O)C1=O .
Out: 1.04

* * *

We begin with a simple list: items and their reported normalized growth.
Test: chemical genetic growth profiling, strain panel (AID 1159580);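 note: tested at 20 µM; growth read once vehicle control cultures reached saturation at 30 °C; 1 = growth at the plate median or of vehicle wells; lower values mean less growth of the strain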
Conditions: S. cerevisiae deletion strains, growth OD, locus YHR030C, strain SLT2, active compounds read low
About 2,000 (36%) of roughly 5,500 compounds were called active. Not shown: some 18% with an inconclusive outcome. This is one part of the list.

// worked examples, normalized growth included
Molecule	Observed
CCOC(=O)C(O)(c1ccc(NC(=O)Nc2ccc(Cl)cc2)cc1)C(F)(F)F (stereo not drawn)	1.06 (inactive)
O=C1c2ccccc2C(=O)c2c1ccc(O)c2O	0.613 (active)

In: Give the measured normalized growth of Cc1cc(N=CNO)c2ccccc2n1 .
Out: 0.869 (inactive)

In: Give the measured normalized growth of CCCc1ccc(OC)cc1NC(C)=O .
Out: 1.06 (inactive)

In: Give the measured normalized growth of O=c1[nH]c2ccccc2n1CCCN1CCC(n2c(=O)[nH]c3cc(Cl)ccc32)CC1 .
Out: 1.02 (inactive)

In: Give the measured normalized growth of CCc1cccc(C)c1NC(=O)N1CCN(C(=O)OC(C)(C)C)CC1 .
Out: 1.01 (inactive)

In: Give the measured normalized growth of OC[C@@H](O)C(O[C@@H]1O[C@H](CO)[C@H](O)[C@H](O)[C@H]1O)[C@H](O)[C@@H](O)CO (stereo partly drawn) .
Out: 0.976 (inactive)

In: Give the measured normalized growth of Cc1c(-n2cccc2)cc2c(c1[N+](=O)[O-])C(C)(C)CC2(C)C .
Out: 1.05 (inactive)

In: Give the measured normalized growth of COc1ccc2ccc(=O)oc2c1CC=C(C)C .
Out: 0.831 (active)

In: Give the measured normalized growth of Cc1c(NCN2C(=O)CCC2=O)cc2c(c1[N+](=O)[O-])C(C)(C)CC2(C)C .
Out: 0.909 (inactive)

In: Give the measured normalized growth of CC(C)=CCC/C(C)=C/COc1ccc2ccc(=O)oc2c1 .
Out: 0.948 (inactive)

In: Give the measured normalized growth of CC(=O)CC(C)=Nc1ccc(C(F)(F)F)cc1 .
Out: 1.08 (inactive)

* * *

Experiment: chemical genetic growth profiling, strain panel (AID 1159580);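 note: tested at 20 µM; growth read once vehicle control cultures reached saturation at 30 °C; 1 = growth at the plate median or of vehicle wells; lower values mean less growth of the strain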
Settings: S. cerevisiae deletion strains, growth OD, locus YDR502C, strain sam2
The whole screen tested about 5,500 compounds, of which about 2,000 (36%) were called active. Not shown: some 18% with an inconclusive outcome. No stated cut-off is given here; in the data, active means normalized growth mostly below about 0.91 (no sharp cut-off); inconclusive means no clear call, values can overlap the other calls; inactive means mostly above about 0.92. The list shows a part of the results.
Returns: one label drawn from y = active, n = inactive

Here are 4 compounds together with their reported answers.
Compound	Group
O=C1c2ccc(O)c(O)c2C(=O)c2c(O)ccc(O)c21	n
OCCN1CCN(CCCN2c3ccccc3Sc3ccc(Cl)cc32)CC1	n
O=C(O)c1cc2cc(Cl)ccc2[nH]1	n
O=c1c(-c2ccc3c(c2)OCO3)coc2cc(O)ccc12	n

In: Hi, sorry to bother you, what did the test record for CC(C(=O)O)c1ccc(N2Cc3ccccc3C2=O)cc1 (configuration not stated) ?
Out: n

In: Hi, sorry to bother you, what did the test record for Fc1ccc(C(c2ccc(F)cc2)N2CCN(C/C=C/c3ccccc3)CC2)cc1 ?
Out: n

In: Hi, sorry to bother you, what did the test record for C=C(C)c1cc2cc(C(C)=O)c(O)cc2o1 ?
Out: n

In: Hi, sorry to bother you, what did the test record for COc1ccc2c(=O)c(-c3cc4c(cc3OC)OCO4)coc2c1 ?
Out: n

In: Hi, sorry to bother you, what did the test record for CC(C)=CCc1c(O)cc2occ(-c3ccc4c(c3)OCO4)c(=O)c2c1O ?
Out: n

In: Hi, sorry to bother you, what did the test record for CN1CCN(C(c2ccccc2)c2ccccc2)CC1 ?
Out: n

In: Hi, sorry to bother you, what did the test record for CC1(C)C[C@@H]2C(=O)CC[C@H]3O[C@]3(C)CC[C@H]21 ?
Out: n

In: Hi, sorry to bother you, what did the test record for CC(=O)OC1CCC2C3CCc4cc(O)ccc4C3CCC12C (configuration not stated) ?
Out: n

In: Hi, sorry to bother you, what did the test record for O=C1c2ccccc2C(=O)c2c1ccc(O)c2O ?
Out: y

In: Hi, sorry to bother you, what did the test record for C[C@]12C=CC(=O)C=C1CCC1C2C(=O)C[C@@]2(C)C1CC[C@]2(O)C(=O)CO (some centres not stated) ?
Out: n

In: Hi, sorry to bother you, what did the test record for CCOc1ccc(Cc2nccc3cc(OCC)c(OCC)cc23)cc1OCC ?
Out: n

In: Hi, sorry to bother you, what did the test record for C[C@]12C=CC(=O)C=C1CCC1C2CC[C@]2(C)C(=O)CCC12 (some centres not stated) ?
Out: n

In: Hi, sorry to bother you, what did the test record for CCOC(=O)C1=C(C)NC(C)=C(C(=O)OC)C1c1cccc([N+](=O)[O-])c1 (configuration not stated) ?
Out: n
